Listed next: entries and their corresponding viability, T/C.
test system: 695427-040-R-J1-PDC complex spheroid viability; assay: Anticancer human tumor 695427-040-R-J1-PDC patient-derived colon adenocarcinoma cell line growth inhibition [POLQ]; conditions: second compound 0.316 µM; first compound 1 µM; active compounds read low

[
  {
    "compound": "COc1cc(C2c3cc4c(cc3C(OC3OC5COC(C)OC5C(O)C3O)C3COC(=O)C23)OCO4)cc(OC)c1O (centres undefined) + Nc1ccc(C#CCN(C(=O)Cc2ncc(C(F)(F)F)cc2C(F)(F)F)c2ccc(F)cc2)nn1",
    "target_or_system": "695427-040-R-J1-PDC complex spheroid viability",
    "viability, T/C / %": 97.6
  },
  {
    "compound": "CC1COCCN1c1cc(C2(S(C)(=N)=O)CC2)nc(-c2ccnc3[nH]ccc23)n1 (centres undefined) + COC1C(OC(N)=O)C(O)C(Oc2ccc3c(O)c(NC(=O)c4ccc(O)c(CC=C(C)C)c4)c(=O)oc3c2C)OC1(C)C",
    "target_or_system": "695427-040-R-J1-PDC complex spheroid viability",
    "viability, T/C / %": 101
  },
  {
    "compound": "CC1COCCN1c1cc(C2(O)CC3CCC(C2)O3)c2cnn(-c3ccn[nH]3)c2n1 (centres undefined) + COC1C(OC(N)=O)C(O)C(Oc2ccc3c(O)c(NC(=O)c4ccc(O)c(CC=C(C)C)c4)c(=O)oc3c2C)OC1(C)C",
    "target_or_system": "695427-040-R-J1-PDC complex spheroid viability",
    "viability, T/C / %": 71.2
  },
  {
    "compound": "C=CCn1c(=O)c2cnc(Nc3ccc(N4CCN(C)CC4)cc3)nc2n1-c1cccc(C(C)(C)O)n1 + Nc1ccc(C#CCN(C(=O)Cc2ncc(C(F)(F)F)cc2C(F)(F)F)c2ccc(F)cc2)nn1",
    "target_or_system": "695427-040-R-J1-PDC complex spheroid viability",
    "viability, T/C / %": 81
  }
]

---

system: 695427-040-R-J1-PDC complex spheroid viability; assay: Anticancer human tumor 695427-040-R-J1-PDC cell line growth inhibition [POLQ]; conditions: second compound 10 µM; first compound 10 µM; active compounds read low;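 also: spheroids exposed to compounds for seven days; 100% = DMSO vehicle control viability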
Listed next: entries and their corresponding viability, T/C.

[
  {
    "compound": "O=c1[nH]cc(F)c(=O)[nH]1 + COC1C(OC(N)=O)C(O)C(Oc2ccc3c(O)c(NC(=O)c4ccc(O)c(CC=C(C)C)c4)c(=O)oc3c2C)OC1(C)C",
    "target_or_system": "695427-040-R-J1-PDC complex spheroid viability",
    "viability, T/C": "101%"
  },
  {
    "compound": "CC(C)n1c(=O)n(C)c2cnc3cc(F)c(-c4ccc(OCCCN5CCCCC5)nc4)cc3c21 + COC1C(OC(N)=O)C(O)C(Oc2ccc3c(O)c(NC(=O)c4ccc(O)c(CC=C(C)C)c4)c(=O)oc3c2C)OC1(C)C",
    "target_or_system": "695427-040-R-J1-PDC complex spheroid viability",
    "viability, T/C": "77.6%"
  },
  {
    "compound": "O=C(Nc1ccc(O)c(NS(=O)(=O)c2ccc(F)cc2)c1)c1ccc(-c2ccccc2)cc1 + COC1C(OC(N)=O)C(O)C(Oc2ccc3c(O)c(NC(=O)c4ccc(O)c(CC=C(C)C)c4)c(=O)oc3c2C)OC1(C)C",
    "target_or_system": "695427-040-R-J1-PDC complex spheroid viability",
    "viability, T/C": "88.3%"
  },
  {
    "compound": "COc1cc(C2c3cc4c(cc3C(OC3OC5COC(C)OC5C(O)C3O)C3COC(=O)C23)OCO4)cc(OC)c1O (stereo unspecified) + Cc1cccc(N(C)C(=O)C2C(O)CCN2c2nc(C)cc(C(F)(F)F)c2C#N)c1",
    "target_or_system": "695427-040-R-J1-PDC complex spheroid viability",
    "viability, T/C": "71.1%"
  },
  {
    "compound": "CC1COCCN1c1cc(C2(O)CC3CCC(C2)O3)c2cnn(-c3ccn[nH]3)c2n1 (stereo unspecified) + Nc1ccc(C#CCN(C(=O)Cc2ncc(C(F)(F)F)cc2C(F)(F)F)c2ccc(F)cc2)nn1",
    "target_or_system": "695427-040-R-J1-PDC complex spheroid viability",
    "viability, T/C": "56.9%"
  },
  {
    "compound": "CC1COCCN1c1cc(-c2ccnn2C)c2ccnc(-c3ccn[nH]3)c2n1 (stereo unspecified) + Nc1ccc(C#CCN(C(=O)Cc2ncc(C(F)(F)F)cc2C(F)(F)F)c2ccc(F)cc2)nn1",
    "target_or_system": "695427-040-R-J1-PDC complex spheroid viability",
    "viability, T/C": "58%"
  },
  {
    "compound": "COc1ccc([C@@H](O)c2cc(-c3ncnc4cc(N5CCOCC5)ccc34)c(F)cc2Cl)nn1 + Nc1ccc(C#CCN(C(=O)Cc2ncc(C(F)(F)F)cc2C(F)(F)F)c2ccc(F)cc2)nn1",
    "target_or_system": "695427-040-R-J1-PDC complex spheroid viability",
    "viability, T/C": "55.1%"
  },
  {
    "compound": "O=C(c1cc(Cc2n[nH]c(=O)c3ccccc23)ccc1F)N1CCN(C(=O)C2CC2)CC1 + Nc1ccc(C#CCN(C(=O)Cc2ncc(C(F)(F)F)cc2C(F)(F)F)c2ccc(F)cc2)nn1",
    "target_or_system": "695427-040-R-J1-PDC complex spheroid viability",
    "viability, T/C": "96.1%"
  },
  {
    "compound": "CCc1cc2c(N3CCc4c(cc(Cn5ccnc5)cc4-c4cn(C)nc4C(F)(F)F)C3=O)ccnc2c(OC)n1 + Nc1ccc(C#CCN(C(=O)Cc2ncc(C(F)(F)F)cc2C(F)(F)F)c2ccc(F)cc2)nn1",
    "target_or_system": "695427-040-R-J1-PDC complex spheroid viability",
    "viability, T/C": "96.7%"
  },
  {
    "compound": "CCCS(=O)(=O)Nc1ccc(F)c(C(=O)c2c[nH]c3ncc(-c4ccc(Cl)cc4)cc23)c1F + Cc1cccc(N(C)C(=O)C2C(O)CCN2c2nc(C)cc(C(F)(F)F)c2C#N)c1",
    "target_or_system": "695427-040-R-J1-PDC complex spheroid viability",
    "viability, T/C": "77.9%"
  },
  {
    "compound": "COc1cc2cc(C(=O)CCC(=O)O)sc2cc1OC + Cc1cccc(N(C)C(=O)C2C(O)CCN2c2nc(C)cc(C(F)(F)F)c2C#N)c1",
    "target_or_system": "695427-040-R-J1-PDC complex spheroid viability",
    "viability, T/C": "90.9%"
  },
  {
    "compound": "C=CC(=O)N1CCN(c2nc(=O)n(-c3c(C)ccnc3C(C)C)c3nc(-c4c(O)cccc4F)c(F)cc23)C(C)C1 (stereo unspecified) + COC1C(OC(N)=O)C(O)C(Oc2ccc3c(O)c(NC(=O)c4ccc(O)c(CC=C(C)C)c4)c(=O)oc3c2C)OC1(C)C",
    "target_or_system": "695427-040-R-J1-PDC complex spheroid viability",
    "viability, T/C": "114%"
  },
  {
    "compound": "CNCc1ccc(-c2[nH]c3cc(F)cc4c3c2CCNC4=O)cc1 + Nc1ccc(C#CCN(C(=O)Cc2ncc(C(F)(F)F)cc2C(F)(F)F)c2ccc(F)cc2)nn1",
    "target_or_system": "695427-040-R-J1-PDC complex spheroid viability",
    "viability, T/C": "102%"
  },
  {
    "compound": "O=C(Nc1ccc(O)c(NS(=O)(=O)c2ccc(F)cc2)c1)c1ccc(-c2ccccc2)cc1 + Nc1ccc(C#CCN(C(=O)Cc2ncc(C(F)(F)F)cc2C(F)(F)F)c2ccc(F)cc2)nn1",
    "target_or_system": "695427-040-R-J1-PDC complex spheroid viability",
    "viability, T/C": "88.1%"
  },
  {
    "compound": "O=c1[nH]cc(F)c(=O)[nH]1 + Nc1ccc(C#CCN(C(=O)Cc2ncc(C(F)(F)F)cc2C(F)(F)F)c2ccc(F)cc2)nn1",
    "target_or_system": "695427-040-R-J1-PDC complex spheroid viability",
    "viability, T/C": "101%"
  },
  {
    "compound": "COc1ccc([C@@H](O)c2cc(-c3ncnc4cc(N5CCOCC5)ccc34)c(F)cc2Cl)nn1 + COC1C(OC(N)=O)C(O)C(Oc2ccc3c(O)c(NC(=O)c4ccc(O)c(CC=C(C)C)c4)c(=O)oc3c2C)OC1(C)C",
    "target_or_system": "695427-040-R-J1-PDC complex spheroid viability",
    "viability, T/C": "51.7%"
  },
  {
    "compound": "CNCc1ccc(-c2[nH]c3cc(F)cc4c3c2CCNC4=O)cc1 + Cc1cccc(N(C)C(=O)C2C(O)CCN2c2nc(C)cc(C(F)(F)F)c2C#N)c1",
    "target_or_system": "695427-040-R-J1-PDC complex spheroid viability",
    "viability, T/C": "104%"
  },
  {
    "compound": "O=C(Nc1ccc(O)c(NS(=O)(=O)c2ccc(F)cc2)c1)c1ccc(-c2ccccc2)cc1 + Cc1cccc(N(C)C(=O)C2C(O)CCN2c2nc(C)cc(C(F)(F)F)c2C#N)c1",
    "target_or_system": "695427-040-R-J1-PDC complex spheroid viability",
    "viability, T/C": "82.6%"
  },
  {
    "compound": "CC1COCCN1c1cc(C2(S(C)(=N)=O)CC2)nc(-c2ccnc3[nH]ccc23)n1 (stereo unspecified) + COC1C(OC(N)=O)C(O)C(Oc2ccc3c(O)c(NC(=O)c4ccc(O)c(CC=C(C)C)c4)c(=O)oc3c2C)OC1(C)C",
    "target_or_system": "695427-040-R-J1-PDC complex spheroid viability",
    "viability, T/C": "79%"
  },
  {
    "compound": "CCc1cc2c(N3CCc4c(cc(Cn5ccnc5)cc4-c4cn(C)nc4C(F)(F)F)C3=O)cc(C)nc2c(OC)n1 + COC1C(OC(N)=O)C(O)C(Oc2ccc3c(O)c(NC(=O)c4ccc(O)c(CC=C(C)C)c4)c(=O)oc3c2C)OC1(C)C",
    "target_or_system": "695427-040-R-J1-PDC complex spheroid viability",
    "viability, T/C": "122%"
  },
  {
    "compound": "COc1cc(C2c3cc4c(cc3C(OC3OC5COC(C)OC5C(O)C3O)C3COC(=O)C23)OCO4)cc(OC)c1O (stereo unspecified) + Nc1ccc(C#CCN(C(=O)Cc2ncc(C(F)(F)F)cc2C(F)(F)F)c2ccc(F)cc2)nn1",
    "target_or_system": "695427-040-R-J1-PDC complex spheroid viability",
    "viability, T/C": "84.9%"
  }
]
